The origin of these recorded values is the supplement of paper PMC11196671.

- ASSAY_DETAILS: PET hydrolysis product formed (TPA+MHET+BHET, UV-Vis) per mg enzyme (mmol/mg enzyme); higher = more PET depolymerisation activity; extreme values may be limits of the assay
- ASSAY_SETUP: PET substrate: aFilm; 60 °C; pH 5.5; 24 h
RESULT_TYPE: PET hydrolysis product formed

[
  {
    "RESIDUE_SEQUENCE": "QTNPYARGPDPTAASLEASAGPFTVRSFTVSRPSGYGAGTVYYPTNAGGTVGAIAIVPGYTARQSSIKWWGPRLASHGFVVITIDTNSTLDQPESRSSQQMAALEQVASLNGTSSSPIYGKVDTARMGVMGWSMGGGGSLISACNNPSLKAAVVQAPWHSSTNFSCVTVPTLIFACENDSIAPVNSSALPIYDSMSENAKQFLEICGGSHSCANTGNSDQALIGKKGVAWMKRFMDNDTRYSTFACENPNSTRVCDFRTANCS [Z1-PETase]",
    "VAL": 0.00483
  },
  {
    "RESIDUE_SEQUENCE": "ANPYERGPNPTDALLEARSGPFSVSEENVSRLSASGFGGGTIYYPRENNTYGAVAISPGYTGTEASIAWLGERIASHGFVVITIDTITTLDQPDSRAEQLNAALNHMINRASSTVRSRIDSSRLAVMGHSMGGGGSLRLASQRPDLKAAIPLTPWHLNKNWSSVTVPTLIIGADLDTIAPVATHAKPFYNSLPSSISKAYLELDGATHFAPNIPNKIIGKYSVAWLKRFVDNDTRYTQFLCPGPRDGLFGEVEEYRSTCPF [TfCut2]",
    "VAL": 0.0295
  },
  {
    "RESIDUE_SEQUENCE": "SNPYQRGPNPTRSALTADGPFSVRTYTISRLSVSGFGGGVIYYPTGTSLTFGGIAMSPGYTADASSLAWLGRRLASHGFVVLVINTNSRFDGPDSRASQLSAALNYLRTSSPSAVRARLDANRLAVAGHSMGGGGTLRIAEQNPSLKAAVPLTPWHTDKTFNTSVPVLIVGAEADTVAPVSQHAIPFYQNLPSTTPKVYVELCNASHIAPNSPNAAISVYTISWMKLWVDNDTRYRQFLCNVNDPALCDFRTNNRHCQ [LCC-ICCG RIP]",
    "VAL": 0.0802
  }
]
